Study Target: T1, MBP-BAK 16-186, biotinylated (Avi tag, 6-histidine tag) (human), Q16611
T1 chain: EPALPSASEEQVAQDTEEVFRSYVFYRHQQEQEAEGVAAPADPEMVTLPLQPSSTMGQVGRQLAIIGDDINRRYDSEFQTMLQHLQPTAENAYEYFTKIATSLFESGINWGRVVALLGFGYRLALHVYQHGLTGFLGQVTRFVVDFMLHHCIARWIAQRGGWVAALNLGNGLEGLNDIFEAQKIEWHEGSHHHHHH
Measurement Protocol: BLI; Octet RED96; biotinylated BCL-2 family proteins (25 nM) immobilised on streptavidin biosensors, designed protein in solution; 10 mM Hepes pH 7.4, 150 mM NaCl, 3 mM EDTA, 0.05% surfactant P20, 0.5% nonfat dry milk; titrations in triplicate, 1:1 binding model
pKd: −log10 of the molar value.
Observable: pKd

Binder: SESQEDIIRNIARHLAQVGDSMDRSIPPGLVNGL (domain or fragment, modifications not checked) [MBP-fused BH3 peptide from BID]
Observable: pKd
Value Reported: < 5.40
